Test target: IDH1 R132H (Homo sapiens, UniProt O75874, R132H)
Sequence (O75874 whole entry R132H): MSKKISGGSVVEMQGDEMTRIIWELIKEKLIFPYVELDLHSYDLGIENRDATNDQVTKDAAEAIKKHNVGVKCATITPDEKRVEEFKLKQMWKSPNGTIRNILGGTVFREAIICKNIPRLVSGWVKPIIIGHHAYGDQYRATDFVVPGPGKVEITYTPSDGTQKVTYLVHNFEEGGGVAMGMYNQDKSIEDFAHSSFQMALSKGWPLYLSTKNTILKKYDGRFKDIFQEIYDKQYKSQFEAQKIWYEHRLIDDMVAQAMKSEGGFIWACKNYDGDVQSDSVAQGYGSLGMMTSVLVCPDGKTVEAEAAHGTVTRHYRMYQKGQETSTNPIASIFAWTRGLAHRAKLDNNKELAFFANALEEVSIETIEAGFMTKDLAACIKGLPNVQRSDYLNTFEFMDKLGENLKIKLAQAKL
Test name: IDH1 R132H enzymatic assay (NADPH depletion coupled to diaphorase/resazurin)
Assay type: biochemical
Condition label: enzymatic inhibition, IDH1 R132H
Readout type: IC50

>  <Molecule>
CCc1cccc(OC(C)C)c1-n1c(C=C(C)C)c(C(=O)N2CCNCC2)cc(-c2nc(-c3ccc(Cl)cc3)cs2)c1=O

>  <IC50>
< 300 nM

$$$$
>  <Molecule>
CC(C)=Cc1c(C(=O)N2CCNCC2)cc(-c2nc(-c3ccc(Cl)cc3)cs2)c(=O)n1-c1ccc[nH]c1=O

>  <IC50>
5000 to 20000 nM

$$$$
>  <Molecule>
CCc1cccc(CC)c1-n1c(C=C(C)C)c(C(=O)N2CCC3(CNC3)C2)cc(-c2nc(-c3ccc(Cl)cc3)cs2)c1=O

>  <IC50>
300 to 1000 nM

$$$$
>  <Molecule>
CC(C)=Cc1c(C(=O)N2CCNCC2)cc(-c2nc(-c3ccc(Cl)cc3)cs2)c(=O)n1-c1ccccc1Cl

>  <IC50>
< 300 nM

$$$$
>  <Molecule>
CCc1cccc(CC)c1-n1c(C2CCC2)c(C(=O)N2CCNCC2)cc(-c2nc(-c3ccc(Cl)cc3)cs2)c1=O

>  <IC50>
300 to 1000 nM

$$$$

For CCc1cccc(CC)c1-n1c2c(cc(-c3nc(-c4ccc(Cl)cc4)cs3)c1=O)C(=O)N1CCCCC21 (centres unmarked) , what is its reported IC50?
300 to 1000 nM

Further, for `Cc1ccccc1Oc1nc(C)c(C(=O)N2CCNCC2)cc1-c1nc(-c2ccc(Cl)cc2)cs1` ?
5000 to 20000 nM

Further, for CCCC1CN(C(=O)c2cc(-c3nc(-c4ccc(Cl)cc4)cs3)c(=O)n(-c3c(CC)cccc3CC)c2C=C(C)C)CCN1 (centres unmarked) ?
< 300 nM

Further, for `CCOc1ncc(F)cc1-n1c(C=C(C)C)c(C(=O)N2CCNCC2)cc(-c2nc(-c3ccc(C(F)(F)F)cc3)cs2)c1=O` ?
< 300 nM

Further, for `CCc1ccc(Cl)c(CC)c1-n1c(C)c(C(=O)N2CCNCC2)cc(-c2nc(-c3ccc(Cl)cc3)cs2)c1=O` ?
300 to 1000 nM

Further, for `CCOc1ncc(C)cc1-n1c(C=C(C)C)c(C(=O)N2CCNCC2)cc(-c2nc(-c3ccc(C(F)(F)F)cc3)cs2)c1=O` ?
< 300 nM

---

Test target: IDH1 R132C (Homo sapiens, UniProt O75874, R132C)
Sequence (O75874 whole entry R132C): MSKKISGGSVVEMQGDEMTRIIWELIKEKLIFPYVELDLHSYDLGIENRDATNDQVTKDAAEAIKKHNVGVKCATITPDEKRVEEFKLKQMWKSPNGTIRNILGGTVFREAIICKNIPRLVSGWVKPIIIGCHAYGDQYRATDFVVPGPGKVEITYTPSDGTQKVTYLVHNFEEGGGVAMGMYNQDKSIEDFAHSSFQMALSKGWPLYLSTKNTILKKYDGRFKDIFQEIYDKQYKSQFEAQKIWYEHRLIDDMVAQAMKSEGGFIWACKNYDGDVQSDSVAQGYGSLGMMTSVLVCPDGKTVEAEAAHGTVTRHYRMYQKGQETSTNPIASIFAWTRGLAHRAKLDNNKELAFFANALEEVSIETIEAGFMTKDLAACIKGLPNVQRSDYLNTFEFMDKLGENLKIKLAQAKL
Test name: IDH1 R132C enzymatic assay (NADPH depletion coupled to diaphorase/resazurin)
Assay type: biochemical
Condition label: IDH1 R132C enzymatic inhibition, IC50 class
Readout type: IC50

>  <Compound>
COc1ccc(C(F)(F)F)cc1-n1c(C=C(C)C)c(C(=O)N2CCNCC2)cc(-c2nc(-c3ccc(Cl)cc3)cs2)c1=O [Compound 383]

>  <Reported value>
0.3 to 1 µM

$$$$
>  <Compound>
CC(c1ccccc1)n1c2c(cc(-c3nc(-c4ccc(Cl)cc4)cs3)c1=O)C(=O)CC(C)(C)C2 (stereo not shown) [Compound 11]

>  <Reported value>
5 to 20 µM

$$$$
>  <Compound>
COc1ccc(OC)c(-n2c3c(cc(-c4nc(C5CCCCC5)cs4)c2=O)C(=O)CC(C)(C)C3)c1 [Compound 69]

>  <Reported value>
1 to 5 µM

$$$$

For CCOc1ccc(C)cc1-n1c(C=C(C)C)c(C(=O)N2CCNCC2)cc(-c2nc(-c3ccc(C(F)F)cc3)cs2)c1=O [Compound 386] , what is its reported IC50?
< 0.3 µM

Further, for CCc1cccc(CC)c1-n1c(C(C)C)c(C(=O)OC)cc(-c2nc(-c3ccc(Cl)cc3)cs2)c1=O [Compound 125] ?
1 to 5 µM

Further, for CCc1cccc(CC)c1-n1c(C)c(C(=O)N2CCN[C@H](C(=O)OC)C2)cc(-c2nc(-c3ccc(Cl)cc3)cs2)c1=O [Compound 41] ?
1 to 5 µM

Further, for CCc1cccc(CC)c1-n1c2c(cc(-c3nc(-c4ccc(Cl)cc4)cs3)c1=O)C(=O)NC2 [Compound 74] ?
5 to 20 µM

---

Test target: IDH1 R132H (Homo sapiens, UniProt O75874, R132H)
Test name: IDH1 R132H enzymatic assay (NADPH depletion coupled to diaphorase/resazurin)
Assay type: biochemical
Condition label: enzymatic inhibition, IDH1 R132H
Below, each of the molecules is paired with its reported IC50 value.

Illustrative cases are given below, each with its answer.
>  <Molecule>
CCc1cccc(CC)c1-n1c(CC(C)C)c(C(=O)N2CCNCC2)cc(-c2nc(/C=C/c3ccc(Cl)cc3)c(C)s2)c1=O

>  <Readout type>
IC50

>  <Reported value>
1000 to 5000 nM

$$$$
>  <Molecule>
COc1cccc(CN2CCN(C)CC2)c1-n1c2c(cc(-c3nc(-c4ccc(Cl)cc4)cs3)c1=O)C(=O)CCC2

>  <Readout type>
IC50

>  <Reported value>
5000 to 20000 nM

$$$$
>  <Molecule>
COc1ccc(C(N)=O)cc1-n1c2c(cc(-c3nc(-c4ccc(Cl)cc4)cs3)c1=O)C(=O)CC(C)(C)C2

>  <Readout type>
IC50

>  <Reported value>
1000 to 5000 nM

$$$$

For CCc1cccc(CC)c1-n1c(C(CC)OC)c(C(=O)N2CCNCC2)cc(-c2nc(-c3ccc(Cl)cc3)cs2)c1=O (stereo not drawn) , what is its reported IC50?
300 to 1000 nM

Further, for `CCc1ccc(Cl)cc1-n1c(C=C(C)C)c(C(=O)N2CCNCC2)cc(-c2nc(-c3ccc(C(F)(F)F)cc3)cs2)c1=O` ?
< 300 nM

Further, for `CCOc1ncc(C)cc1-n1c(C=C(C)C)c(C(=O)N2CCNCC2)cc(-c2nc(-c3ccc(C(F)F)cn3)cs2)c1=O` ?
300 to 1000 nM

Further, for `Cc1ccc(Cl)c(-n2c3c(cc(-c4nc(-c5ccc(Cl)cc5)cs4)c2=O)C(=O)CC(C)(C)C3)c1` ?
300 to 1000 nM

Further, for `COCc1ncc(Cl)cc1-n1c(C=C(C)C)c(C(=O)N2CCNCC2)cc(-c2nc(-c3ccc(C(F)(F)F)cc3)cs2)c1=O` ?
< 300 nM

Further, for `CN1CCN(Cc2ccccc2-n2c3c(cc(-c4nc(-c5ccc(Cl)cc5)cs4)c2=O)C(=O)CC(C)(C)C3)CC1` ?
5000 to 20000 nM

---

Below, each of the molecules is paired with its reported IC50 value.
Test target: IDH1 R132C (Homo sapiens, UniProt O75874, R132C)
Test name: IDH1 R132C enzymatic assay (NADPH depletion coupled to diaphorase/resazurin)
Assay type: biochemical
Condition label: enzymatic inhibition, IDH1 R132C

Illustrative cases are given below, each with its answer.
>  <Molecule>
CCc1cccc(CC)c1-n1c(C=C(C)C)c(C(=O)N2CCCNC(=O)C2)cc(-c2nc(-c3ccc(Cl)cc3)cs2)c1=O

>  <Test target>
IDH1 R132C (Homo sapiens, UniProt O75874, R132C)

>  <Reported value>
< 300 nM

$$$$
>  <Molecule>
CCc1cccc(CC)c1-n1c(C=C(C)C)c(C(=O)N2CC3(CNC3)C2)cc(-c2nc(-c3ccc(Cl)cc3)cs2)c1=O

>  <Test target>
IDH1 R132C (Homo sapiens, UniProt O75874, R132C)

>  <Reported value>
< 300 nM

$$$$
>  <Molecule>
CCc1cccc(CC)c1-n1c(C=C(C)C)c(C(=O)N2CCNC(CO)C2)cc(-c2nc(-c3ccc(Cl)cc3)cs2)c1=O (stereo not drawn)

>  <Test target>
IDH1 R132C (Homo sapiens, UniProt O75874, R132C)

>  <Reported value>
< 300 nM

$$$$
>  <Molecule>
CCOc1ncc(F)cc1-n1c(C=C(C)C)c(C(=O)N2CCNCC2)cc(-c2nc(-c3ccc(C(F)(F)F)cc3)cs2)c1=O

>  <Test target>
IDH1 R132C (Homo sapiens, UniProt O75874, R132C)

>  <Reported value>
< 300 nM

$$$$
>  <Molecule>
CCc1cccc(CC)c1-n1c(C=C(C)C)c(C(=O)N2CCNCC2)cc(-c2nc(-c3ccc(Cl)cc3)cs2)c1=O

>  <Test target>
IDH1 R132C (Homo sapiens, UniProt O75874, R132C)

>  <Reported value>
< 300 nM

$$$$
>  <Molecule>
CCc1cccc(CC)c1-n1c(C=C(C)C)c(C(=O)N2CCNCC2)cc(-c2ccn(-c3ccc(OC4CC4)cc3)n2)c1=O

>  <Test target>
IDH1 R132C (Homo sapiens, UniProt O75874, R132C)

>  <Reported value>
< 300 nM

$$$$

For CCCC1CN(C(=O)c2cc(-c3nc(-c4ccc(Cl)cc4)cs3)c(=O)n(-c3c(CC)cccc3CC)c2C=C(C)C)CCN1 (stereo not drawn) , what is its reported IC50?
< 300 nM

Further, for `CCOc1cccc(OCC)c1-n1c2c(cc(-c3nc(-c4ccc(Cl)cc4)cs3)c1=O)C(=O)CC(C)(C)C2` ?
300 to 1000 nM

Further, for `CCc1cccc(CC)c1-n1c(CC(C)C)c(C(=O)N2CCNCC2)cc(-c2nc(-c3ccc(Cl)cc3)c(C(=O)NC)s2)c1=O` ?
1000 to 5000 nM
